Attribution: patent US11254745

Biological target: T1, extracellular domain of hCD4 fused with a histidine tag (hCD4-HisTag) (human, UniProt P01730 26-396)
T1 construct: extracellular domain; also called human CD4-HisTag; not shown: histidine tag
Experiment: Biacore T200 SPR, antibody captured on Protein A, CD4-HisTag analyte, 1:1 fit, 25 C
property: pKd
// field semantics: pKd = negative decimal log of concentration (mol/L)

Before answering, review these 2 worked examples.
[
  {
    "binder": "2B6 humanized anti-CD4 antibody (antibody, V domains shown, Expressed as heavy and light chains in Freestyle 293 cells; also called Humanized 2B6) VH: QVQLQESGPGLVKPSETLSLTCTVSGDSITSGYWNWIRQPPGKGLEFLGYISFADTTNYNPSLKSRVTISRDTSKNQFSLKLSSVTAADTAVYYCARDDYGYYAMDYWGQGTLVTVSS VL: DIQLTQSPSSLSASVGDRVTITCRASQDIDNYLNWYQQKPGKAPKLLIYYTSRLHSGVPSRFSGSGSGTDYTLTISSLQPEDFATYYCQQGNTLPTFGQGTKLEIK",
    "pKd": 9.82
  },
  {
    "binder": "Chimeric 11E12 anti-CD4 antibody (antibody, human IgG1, kappa, V domains shown) VH: EVQLEESGPSLVKPSQTLSLTCSVTGDSITSSYWNWIRKFPGHKLEFLGYISFADTTNYNPSLKSRISITRDTSKNQFDLQLKSVTTEDTATYYCARDDFGYYAMDYWGQGISVTVSS VL: DIYVTQTTSSLSASLGDRVTIICRASQDINNYLNWYQLKPDGTLKLLIYYTSRLHSGVPSRFGGSGSGTEYSLTISNLEQEDVATYFCQQGNTLPTFGAGTKLELKR",
    "pKd": 8.20
  }
]

Consider the record given below.
pKd lookup needed for Chimeric 29B7 anti-CD4 antibody (antibody, human IgG1, kappa, V domains shown) VH: QVQLQQSGAELAKPGASVKMSCKTSADSLNTHWMHWVKQRPGQGLEWIGYINPYTGSGEYSQKFKGKATLTADISSSTAYMQLISLTSEDSAVYYCAYDSTGAMDYWGQGTSVTVSS VL: DIKMTQSPSSMYASLGERITITCKASQDINRYLSWFQQKPGKSPKTPIYRADRSVDGVPSRFSGSGSGQDYSLTISSLEYEDMGIYYCQQYDEFPYTFGGGTKLEIKR , thanks.
10.07
